- Tested on: Plasmodium falciparum
- experimental-protocol: NOVARTIS: Inhibition of Plasmodium falciparum W2 (drug-resistant) proliferation in erythrocyte-based infection assay
- Assay type: functional, organism-based
- conditions-used: Plasmodium falciparum, W2; read-out: EC50
pEC50: −log10 of the molar value.
Kindly supply the reported pEC50 values for the records listed here.

Record CN(C)c1ccc(/C=C2\N=C(c3ccccc3F)OC2=O)cc1 ; system Plasmodium falciparum; pEC50 = < 5.92

Record CC(C)(C)CC(=O)N1CCC[C@@H]2CN(C(=O)CCOc3ccccc3)CC[C@@H]21 ; system Plasmodium falciparum; pEC50 = < 6.06

Record O=c1c(=Cc2ccc(-c3ccc([N+](=O)[O-])cc3Cl)o2)sc2nc3ccccc3n12 ; system Plasmodium falciparum; pEC50 = < 5.90

Record CCCCCCN(C(=O)c1ccc2ccccc2c1)C(CC)c1nc2ccccc2c(=O)n1-c1cccc(Cl)c1 (stereo unspecified) ; system Plasmodium falciparum; pEC50 = < 5.95

Record CCN(CC)CCNC(=O)c1cc(-c2ccc(Cl)cc2)cc(-n2cnnn2)c1 ; system Plasmodium falciparum; pEC50 = > 7.58

Record CCOC(=O)c1c(NC(=O)CSc2nnc(CNC(=O)c3cccc(C)c3)n2-c2cccc(C)c2)sc2c1CCC2 ; system Plasmodium falciparum; pEC50 = < 5.93

Record Cc1cc(NS(=O)(=O)c2ccc(NC(=O)c3ccc([N+](=O)[O-])cc3)cc2)no1 ; system Plasmodium falciparum; pEC50 = < 6.17

Record O=C(NCc1ccco1)C1CCCN(c2cccc3c2C(=O)N(CCc2cccc(F)c2)C3=O)C1 (stereo unspecified) ; system Plasmodium falciparum; pEC50 = < 6.21

Record CCOC(=O)c1c(NC(=O)CCC(=O)OC)sc2c1CC(C)(C)SC2 ; system Plasmodium falciparum; pEC50 = < 5.95

Record Cn1c(=O)[nH]c2c(c1=O)n(C)c(=O)n2C ; system Plasmodium falciparum; pEC50 = < 6.10

Record COc1cccc(NC(=O)c2ccc3oc(=O)c(S(=O)(=O)c4ccccc4)cc3c2)c1 ; system Plasmodium falciparum; pEC50 = < 6.05

---

- experimental-protocol: NOVARTIS: Cytotoxicity against human hepatocellular carcinoma cell line (Huh7)
- Format: toxicity, cell-based, Huh-7
- conditions-used: Huh7 cells (hepatocellular carcinoma cell line)
Kindly supply the reported CC50 values for the records listed here.

The recorded CC50 for Cc1ccc(C)c(Nc2nc(NCC3CCCO3)c3ccccc3n2)c1 (stereo not given) is 18.6 µM

The recorded CC50 for COC(=O)c1sc2nc(CN3CCCC(C)C3)ccc2c1NC(=O)c1ccc(C)s1 (stereo not given) is > 100 µM

The recorded CC50 for CCN(CC)CCNc1ncnc2c1[nH]c1ccc(F)cc12 is 31.5 µM

The recorded CC50 for CCNC(=O)NCCSc1nc(-c2ccc(OC)cc2)c(-c2ccc(OC)cc2)n1CC is > 10 µM

The recorded CC50 for CCOC(=O)c1c(NC(=O)CCC(=O)OC)sc2c1CC(C)(C)SC2 is > 10 µM

---

Kindly supply the reported EC50 values for the records listed here.
- Tested on: Plasmodium falciparum
- experimental-protocol: NOVARTIS: Inhibition of Plasmodium falciparum 3D7 (drug-susceptible) proliferation in erythrocyte-based infection assay
- Type: functional, organism-based
- conditions-used: Plasmodium falciparum, 3D7
The response must be a number in nM with no trailing unit.

The recorded EC50 for Clc1cccc(CCNC2CCN(CCc3ccccc3)CC2)c1 is 170

The recorded EC50 for Cc1cccc(OC(C)C(=O)N2CCc3ccccc32)c1 (stereo unspecified) is 3480

The recorded EC50 for Cn1c(-c2ccc([N+](=O)[O-])cc2)[n+](C)c2ccccc21 is 1310

The recorded EC50 for Cc1ccc2c(c1)NC(c1ccc(F)cc1)C1=C(CC(c3ccccc3)CC1=O)N2 (stereo unspecified) is 833

The recorded EC50 for CCOc1ccc2ncc(S(=O)(=O)c3ccc(OC)cc3)c(N3CCN(C)CC3)c2c1 is 100

Each recorded value in this set is attributed to ChEMBL document CHEMBL1156829.
